# System: SK-MEL-5 melanoma
# Protocol notes: NCI-60 one-dose screen, 48 h (100 = growth as untreated, 0 = no growth, -100 = all killed)
# Condition description: 10 µM unless noted
# Procedure: Growth inhibition of the SK-MEL-5 human tumor cell line is measured as a screen for anti-cancer activity. Cells are grown in 96 well plates and exposed to the test compound for 48 hours. Compounds are tested at a single concentration, which is 10^-5 M for most compounds. The reported endpoint is percent growth (GI% or GIPRCNT), where numbers from 0 - 100% represent growth inhibition, and numbers from -100% - 0 represent cell death. For example, a value of 40 represents 60% growth inhibition. […]
The panel holds about 83,000 compounds, 20% with a hit somewhere; the sample as a whole holds those more often.
Experimental readout: growth (%)
Only the number, expressed in %, is required.

Reference set (6 entries):
Molecule | growth, %
CN1C(=O)/C(=C/c2ccc(C(=O)Nc3ncc(Cc4cccc(Cl)c4)s3)cc2)SC1=S | 25.7
N#C/C(=C\C=C\c1ccc(-c2cc(Cl)ccc2Cl)o1)c1nc2ccccc2s1 | 97.5
CC(C)(C)c1cc(Cl)c(O)c(CNCCO)c1 | 100
O=[N+]([O-])c1cc(NS(=O)(=O)c2ccccc2)ccc1NS(=O)(=O)c1ccccc1 | 99.4
CCOC(=O)/C=C1\S/C(=N\Nc2cc(=O)[nH]c3ccccc23)N(c2ccccc2)C1=O | 104
COc1cc(C2C(C(=O)OCc3ccccc3)=C(C)NC(C)=C2C(=O)OCc2ccccc2)cc(OC)c1OC | 8.07

Query: Name the reported growth value associated with the molecule CCOC(=O)C(Cc1ccc(OC)cc1)C(=O)OCC
Reply: 53.1

Query: Param item = CN1CCN(C(=S)SCCCCOc2cc(=O)oc3ccccc23)CC1 ; retrieve measured growth.
Reply: 69.5

Query: # query: growth of entry CNC(C)[C@H]1CCC2C3CC=C4C(=O)[C@@H](NC(=O)C=C(C)C)CC[C@]4(C)C3CC[C@@]21C (some centres undefined)
Reply: -89.8

Query: Given the entry CCOC(=O)CC1CSC(Nc2ccccc2)=N1 (centres undefined) , report its measured growth.
Reply: 103

Query: What does the data say about its growth? Entry: CCOC(=O)C1=C(C)C(Cl)=N/C1=C\c1[nH]c(Cl)c(C)c1C(=O)OCC
Reply: 96.8

Query: What growth value was documented for this molecule, CC1CCN(C(=S)SCC(=O)NC(=O)c2ccccc2)CC1 ?
Reply: 113

Query: Name the recorded growth for Cc1ccccc1Nc1cc(O)c2c(=O)cc(-c3ccccc3)oc2c1 .
Reply: 23.5

Query: Any idea what growth was measured for Fc1cccc(-c2ccc3c(c2)C2(CCNCC2)CN3)c1 ?
Reply: 97.4

Query: Tell me the measured growth of CCCCCN(CCCCC)CC(O)c1cc(C)c2ccc3cc(C(C)C)ccc3c2c1 (centres undefined) , please.
Reply: 79.1

Query: Give its growth value. Item: COc1ccc(N2CCN(C(=O)c3sc4nc(C)c(Br)c(C)c4c3N)CC2)cc1
Reply: 93.4

Query: Suppose we examine the molecule C=C1C(=O)O[C@H]2[C@H]1CC/C(COC(=O)c1ccc(C(=O)O)s1)=C\CC[C@@]1(C)O[C@@H]21 ; what growth value has been reported?
Reply: 91.4

Query: Param item = O=C(Cc1ccccc1)Nc1cccc(N=Cc2ccccc2O)c1 ; retrieve measured growth.
Reply: 106

Query: Consider the molecule CN(C)CCN1C(=O)c2cccc3c(/C=C/CN4C(=O)c5cccc6cccc(c56)C4=O)ccc(c23)C1=O and give its measured growth.
Reply: 82.2

Query: // growth lookup, key: COc1cc(/C=C/C(=O)/C=C(O)/C=C/c2ccc(OC(=O)C34CC5CC(CC(C5)C3)C4)c(OC)c2)ccc1OC(=O)C12CC3CC(CC(C3)C1)C2
Reply: 105

Query: growth for C=Cc1cnc(Nc2ccc(OC)cc2)nc1NCCCNC(=O)C1CCC1 ?
Reply: 37.5

Query: Data request, read-out growth, for CCCCCCCCCCCCCCCCCC1=NC(C)(C)CN1CC(C)O (centres undefined)
Reply: 100

Query: // lookup growth for O=C1c2ccccc2C(=O)c2c1cc1c(c2[N+](=O)[O-])OCO1
Reply: 80

Query: # lookup: growth of N#Cc1c(-c2ccccc2)nc(SCc2nnc(-c3ccc(Cl)cc3)o2)[nH]c1=O
Reply: 99.5
